Species: Bos taurus
testProtocol: Neutralization of enoxaparin sodium in bovine plasma at 10 to 60 ug/ml by aPTT assay
Assay type: cell-free
conditionParameters: dose 10-60 µg/ml
Active and inactive are the calls of the source. The calls are words filed in the database; no cut-off is given here.
Reply using exactly one outcome from YES (active), NO (inactive)

{"columns": ["smilesString", "assignedLabel"],
 "data": [
  ["c1cc[n+](Cc2ccc(C(c3ccc(C[n+]4ccccc4)cc3)(c3ccc(C[n+]4ccccc4)cc3)c3ccc(C[n+]4ccccc4)cc3)cc2)cc1", "NO"],
  ["Cn1cc[n+](Cc2ccc(C(c3ccc(C[n+]4ccn(C)c4)cc3)(c3ccc(C[n+]4ccn(C)c4)cc3)c3ccc(C[n+]4ccn(C)c4)cc3)cc2)c1", "NO"],
  ["NCCSc1ccc(-c2cc[n+](Cc3ccc(C(c4ccc(C[n+]5ccc(-c6ccc(SCCN)cc6)cc5)cc4)(c4ccc(C[n+]5ccc(-c6ccc(SCCN)cc6)cc5)cc4)c4ccc(C[n+]5ccc(-c6ccc(SCCN)cc6)cc5)cc4)cc3)cc2)cc1.[Cl-].[Cl-].[Cl-].[Cl-]", "YES"],
  ["NCCOc1ccc2c[n+](Cc3ccc(C(c4ccc(C[n+]5ccc6cc(OCCN)ccc6c5)cc4)(c4ccc(C[n+]5ccc6cc(OCCN)ccc6c5)cc4)c4ccc(C[n+]5ccc6cc(OCCN)ccc6c5)cc4)cc3)ccc2c1", "YES"],
  ["NCC(=O)Nc1ccc(-c2cc[n+](Cc3ccc(C(c4ccc(C[n+]5ccc(-c6ccc(NC(=O)CN)cc6)cc5)cc4)(c4ccc(C[n+]5ccc(-c6ccc(NC(=O)CN)cc6)cc5)cc4)c4ccc(C[n+]5ccc(-c6ccc(NC(=O)CN)cc6)cc5)cc4)cc3)cc2)cc1.[Cl-].[Cl-].[Cl-].[Cl-]", "YES"]
]}

Now look at this entry.
Hello, I am checking results. What call was entered for `NCCCOc1ccc(-c2cc[n+](Cc3ccc(C(c4ccc(C[n+]5ccc(-c6ccc(OCCCN)cc6)cc5)cc4)(c4ccc(C[n+]5ccc(-c6ccc(OCCCN)cc6)cc5)cc4)c4ccc(C[n+]5ccc(-c6ccc(OCCCN)cc6)cc5)cc4)cc3)cc2)cc1.[Cl-].[Cl-].[Cl-].[Cl-]` ?
YES

###

Species on record: Bos taurus
testProtocol: Neutralization of enoxaparin sodium in bovine plasma at 10 to 60 ug/ml by aPTT assay
Type: cell-free
conditionParameters: dose 10-60 µg/ml
Active and inactive are the calls of the source. The calls are words filed in the database; no cut-off is given here.
Reply using exactly one outcome from active, inactive

Answered cases to consult:
{"columns": ["smilesString", "assignedLabel"],
 "data": [
  ["NCCOc1ccc(-c2cc[n+](Cc3ccc(C(c4ccc(C[n+]5ccc(-c6ccc(OCCN)cc6)cc5)cc4)(c4ccc(C[n+]5ccc(-c6ccc(OCCN)cc6)cc5)cc4)c4ccc(C[n+]5ccc(-c6ccc(OCCN)cc6)cc5)cc4)cc3)cc2)cc1.[Cl-].[Cl-].[Cl-].[Cl-]", "active"],
  ["NCCOc1ccc(-c2cc[n+](Cc3ccc(C(c4ccc(C[n+]5ccc(-c6ccc(OCCN)c(OCCN)c6)cc5)cc4)(c4ccc(C[n+]5ccc(-c6ccc(OCCN)c(OCCN)c6)cc5)cc4)c4ccc(C[n+]5ccc(-c6ccc(OCCN)c(OCCN)c6)cc5)cc4)cc3)cc2)cc1OCCN.[Cl-].[Cl-].[Cl-].[Cl-]", "active"],
  ["NCCOc1ccc(-n2cc[n+](Cc3ccc(C(c4ccc(C[n+]5ccn(-c6ccc(OCCN)cc6)c5)cc4)(c4ccc(C[n+]5ccn(-c6ccc(OCCN)cc6)c5)cc4)c4ccc(C[n+]5ccn(-c6ccc(OCCN)cc6)c5)cc4)cc3)c2)cc1", "active"]
]}

Now look at this entry.
Hello, I am checking results. What call was entered for `COc1ccc(-c2cc[n+](Cc3ccc(C(c4ccc(C[n+]5ccc(-c6ccc(OC)cc6)cc5)cc4)(c4ccc(C[n+]5ccc(-c6ccc(OC)cc6)cc5)cc4)c4ccc(C[n+]5ccc(-c6ccc(OC)cc6)cc5)cc4)cc3)cc2)cc1` ?
inactive
